Cited source: patent US20100267743A1

Target: SERT (Homo sapiens, UniProt P31645)
Sequence (P31645 whole entry): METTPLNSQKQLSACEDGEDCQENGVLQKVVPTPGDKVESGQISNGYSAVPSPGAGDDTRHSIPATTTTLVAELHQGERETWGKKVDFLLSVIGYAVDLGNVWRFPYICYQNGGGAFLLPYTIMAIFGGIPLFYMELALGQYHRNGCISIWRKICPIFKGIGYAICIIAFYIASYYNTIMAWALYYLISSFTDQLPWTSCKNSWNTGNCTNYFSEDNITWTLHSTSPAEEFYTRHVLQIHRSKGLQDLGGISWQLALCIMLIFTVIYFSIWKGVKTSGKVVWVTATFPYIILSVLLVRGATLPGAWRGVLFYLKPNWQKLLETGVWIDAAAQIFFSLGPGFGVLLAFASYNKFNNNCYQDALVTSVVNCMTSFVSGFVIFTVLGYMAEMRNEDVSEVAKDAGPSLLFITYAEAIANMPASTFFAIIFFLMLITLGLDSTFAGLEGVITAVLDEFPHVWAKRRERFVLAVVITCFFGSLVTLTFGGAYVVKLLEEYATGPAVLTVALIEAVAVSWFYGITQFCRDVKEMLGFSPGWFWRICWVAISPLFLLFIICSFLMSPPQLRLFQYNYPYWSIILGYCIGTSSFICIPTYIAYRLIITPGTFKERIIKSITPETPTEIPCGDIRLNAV
Test: hSERT radioligand binding assay (3H-citalopram)
Set-up: expressed in transfected cells; host or cells: HEK-293
Details: hSERT membranes (HEK-293), 1.0 nM 3H-citalopram; read-out: SERT pKi (converted)
property_name: Ki

Record excerpt, results attached:
compound: Cc1cc(Cl)ccc1O[C@@H](c1ccco1)[C@H]1CCNC1 [Example 8-2]
property_name: Ki
measured_value: ≤ 10000 nM

compound: Fc1ccc(F)c(O[C@H](c2cncc(Cl)c2)[C@H]2CCNC2)c1Cl [Example 2-7]
property_name: Ki
measured_value: ≤ 100 nM

compound: Fc1cc(Cl)c(OC(c2nccs2)C2CCNC2)c(Cl)c1 (centres unmarked) [Example 5-10]
property_name: Ki
measured_value: ≤ 10000 nM

compound: Fc1cncc([C@@H](Oc2cc(Cl)cc(Cl)c2)[C@H]2CCNC2)c1 [Example 2-66]
property_name: Ki
measured_value: ≤ 100 nM

compound: Clc1cccc(C(Oc2cccc3ccccc23)C2CCNC2)c1 (centres unmarked) [21-5]
property_name: Ki
measured_value: ≤ 100 nM

Which Ki is listed for Clc1cccc(Cl)c1O[C@H](c1ccncc1)[C@H]1CCNC1 [Example 3-5] ?
≤ 100 nM

Which Ki is listed for Cc1cc(Cl)c(OC(c2nccs2)C2CCNC2)c(Cl)c1 (centres unmarked) [Example 5-13] ?
≤ 10000 nM

Which Ki is listed for Clc1ccc(O[C@@H](c2ccccc2)C2CCNC2)cn1 (some centres unmarked) [15-22] ?
≤ 100 nM

Which Ki is listed for Fc1cc(F)c(Cl)c(OC(c2nccs2)C2CCNC2)c1Cl (centres unmarked) [Example 5-9] ?
≤ 100 nM

Which Ki is listed for Fc1ccc(F)c(O[C@H](c2ncco2)[C@H]2CCNC2)c1Cl [6-21] ?
≤ 10000 nM

Which Ki is listed for Cc1cc(Cl)cc(Cl)c1OC(c1cncc(Cl)c1)C1CCNC1 (centres unmarked) [Example 2-30] ?
≤ 100 nM

Which Ki is listed for Fc1ccc(F)c(O[C@@H](c2ccco2)[C@H]2CCNC2)c1Cl [Example 8-1] ?
≤ 10000 nM

---

Target: UniProt P31645
Assay: hSERT radioligand binding assay (3H-citalopram)
Set-up: expressed in transfected cells; host or cells: HEK-293
Settings: hSERT membranes (HEK-293), 1.0 nM 3H-citalopram
property_name: SERT pKi

Record excerpt, results attached:
molecule: CC(C)c1ccccc1O[C@@H](c1ncco1)[C@H]1CCNC1.O=C(O)C(F)(F)F [6-32]
SERT pKi: ≧5.0
--
molecule: Fc1cc(O[C@@H](c2ccccc2)[C@H]2CCNC2)ccn1.O=C(O)C(F)(F)F [16-6]
SERT pKi: ≧5.0
--
molecule: Clc1ncccc1O[C@@H](c1ccccc1)[C@H]1CCNC1.O=C(O)C(F)(F)F [15-6]
SERT pKi: ≧7.0
--
molecule: Clc1cnc(OC(c2ccccc2)C2CCNC2)c(Cl)c1 (centres unmarked) [14-14]
SERT pKi: ≧7.0

Continue with the next molecule.
Which SERT pKi is listed for Brc1cnc(O[C@@H](c2ccccc2)[C@H]2CCNC2)c(Br)c1.O=C(O)C(F)(F)F [14-13] ?
≧7.0

---

Biological target: NET (Homo sapiens, UniProt P23975)
Sequence (P23975 whole entry): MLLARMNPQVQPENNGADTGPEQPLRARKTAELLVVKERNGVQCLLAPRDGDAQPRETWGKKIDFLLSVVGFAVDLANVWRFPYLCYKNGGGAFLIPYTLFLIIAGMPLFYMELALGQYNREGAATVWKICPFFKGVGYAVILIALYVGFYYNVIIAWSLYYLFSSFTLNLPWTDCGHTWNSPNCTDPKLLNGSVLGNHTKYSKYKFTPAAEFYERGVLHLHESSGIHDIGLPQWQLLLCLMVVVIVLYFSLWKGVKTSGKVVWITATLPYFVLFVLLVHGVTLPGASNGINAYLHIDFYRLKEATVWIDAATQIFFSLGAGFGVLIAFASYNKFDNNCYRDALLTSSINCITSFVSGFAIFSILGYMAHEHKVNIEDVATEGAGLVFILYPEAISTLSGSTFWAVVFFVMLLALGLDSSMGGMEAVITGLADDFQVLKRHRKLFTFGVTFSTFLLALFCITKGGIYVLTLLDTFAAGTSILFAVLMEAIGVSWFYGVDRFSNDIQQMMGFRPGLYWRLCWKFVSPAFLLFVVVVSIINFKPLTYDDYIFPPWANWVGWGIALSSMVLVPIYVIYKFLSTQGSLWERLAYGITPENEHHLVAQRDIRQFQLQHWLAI
Assay: hNET radioligand binding assay (3H-nisoxetine)
Parameters: expressed in transfected cells; host or cells: HEK-293
Settings: hNET membranes (HEK-293), 1.0 nM 3H-nisoxetine
property_name: NET pKi

Record excerpt, results attached:
compound: Fc1cc(F)c(F)c(O[C@@H](c2nccs2)[C@H]2CCNC2)c1F [Example 5-3]
tested_system: NET (Homo sapiens, UniProt P23975)
NET pKi: ≧5.0
//
compound: Cc1ccccc1O[C@H](c1nccs1)[C@H]1CCNC1 [Example 5-25]
tested_system: NET (Homo sapiens, UniProt P23975)
NET pKi: ≧7.0
//
compound: Fc1ccc(O[C@@H](c2ccccc2)[C@H]2CCNC2)nc1.O=C(O)C(F)(F)F [14-29]
tested_system: NET (Homo sapiens, UniProt P23975)
NET pKi: ≧7.0
//
compound: Cc1cc(Br)cnc1O[C@@H](c1ccccc1)[C@H]1CCNC1.O=C(O)C(F)(F)F [14-21]
tested_system: NET (Homo sapiens, UniProt P23975)
NET pKi: ≧7.0

Continue with the next compound.
Which NET pKi is listed for Clc1cc(Cl)cc(O[C@@H](c2cncnc2)[C@H]2CCNC2)c1.O=C(O)C(F)(F)F [12-5] ?
≧5.0

---

Molecular target: SERT (Homo sapiens, UniProt P31645)
Test: hSERT radioligand binding assay (3H-citalopram)
Parameters: expressed in transfected cells; host or cells: HEK-293
Conditions: hSERT membranes (HEK-293), 1.0 nM 3H-citalopram; read-out: SERT pKi (converted)
property_name: Ki

compound: Cc1ccc(O[C@@H](c2ncco2)[C@H]2CCNC2)cc1 [6-48]
Ki: ≤ 100 nM
//
compound: Fc1cc(F)c(O[C@@H](c2ncco2)[C@H]2CCNC2)c(F)c1 [6-2]
Ki: ≤ 10000 nM
//
compound: Clc1ccc(Cl)c(O[C@@H](c2cccnc2)[C@H]2CCNC2)c1Cl [Example 2-67]
Ki: ≤ 100 nM
//
compound: Fc1cc(F)c(F)c(OC(c2nccs2)C2CCNC2)c1F (centres unmarked) [Example 5-4]
Ki: ≤ 10000 nM
//
compound: Fc1cc(Cl)cc(F)c1OC(c1cncc(Cl)c1)C1CCNC1 (centres unmarked) [Example 2-25]
Ki: ≤ 100 nM
//
compound: Fc1cncc([C@@H](Oc2c(Cl)c(F)cc(F)c2Cl)[C@H]2CCNC2)c1 [Example 2-42]
Ki: ≤ 100 nM
//
compound: COc1cc(Cl)ccc1O[C@@H](c1cncc(F)c1)[C@H]1CCNC1 [Example 1]
Ki: ≤ 100 nM
//
compound: Fc1cc(F)c(O[C@@H](c2ccncc2)[C@H]2CCNC2)c(F)c1 [Example 3-1]
Ki: ≤ 10000 nM

Which Ki is listed for Fc1cncc(C(Oc2c(F)ccc(F)c2Cl)C2CCNC2)c1 (centres unmarked) [Example 2-50] ?
≤ 100 nM

Which Ki is listed for Fc1cc(F)c(OC(c2nccs2)C2CCNC2)c(F)c1 (centres unmarked) [Example 5-6] ?
≤ 10000 nM

Which Ki is listed for Cc1cc(Cl)ccc1O[C@H](c1cncc(F)c1)[C@H]1CCNC1 [Example 2-61] ?
≤ 100 nM

Which Ki is listed for Clc1cc(Cl)cc(O[C@@H](c2ccco2)[C@H]2CCNC2)c1 [Example 8-3] ?
≤ 100 nM

Which Ki is listed for COc1ncccc1O[C@@H](c1ccccc1)C1CCNC1 (some centres unmarked) [15-16] ?
≤ 100 nM

Which Ki is listed for Fc1cc(Cl)ccc1OC(c1nccs1)C1CCNC1 (centres unmarked) [Example 5-32] ?
≤ 100 nM

Which Ki is listed for Fc1ccc(F)c(O[C@H](c2cnccn2)[C@H]2CCNC2)c1Cl [10-4] ?
≤ 100 nM

Which Ki is listed for Cc1cccc(O[C@@H](c2ncco2)[C@H]2CCNC2)c1 [6-46] ?
≤ 10000 nM

Which Ki is listed for Clc1cc(Cl)cc(OC(c2ccoc2)C2CCNC2)c1 (centres unmarked) [Example 9-1] ?
≤ 100 nM

Which Ki is listed for FC(F)(F)Oc1ccccc1O[C@@H](c1ncco1)[C@H]1CCNC1 [6-37] ?
≤ 10000 nM

Which Ki is listed for Fc1ccc(O[C@H](c2nccs2)[C@H]2CCNC2)c(Cl)c1 [Example 5-19] ?
≤ 100 nM

Which Ki is listed for c1ccc(C(Oc2cccc3ccccc23)C2CCNC2)cc1 (centres unmarked) [21-1] ?
≤ 100 nM

---

Molecular target: NET (Homo sapiens, UniProt P23975)
Test: hNET radioligand binding assay (3H-nisoxetine)
Set-up: expressed in transfected cells; host or cells: HEK-293
Details: hNET membranes (HEK-293), 1.0 nM 3H-nisoxetine
property_name: NET pKi

molecule: Cc1cnc(O[C@@H](c2ccccc2)[C@H]2CCNC2)c(Br)c1.O=C(O)C(F)(F)F [14-31]
measured_value: ≧7.0
--
molecule: Clc1ccc(O[C@H](c2ccccc2)[C@@H]2CCNC2)cn1.O=C(O)C(F)(F)F [15-23]
measured_value: ≧5.0
--
molecule: Cc1cccc(Cl)c1O[C@@H](c1ncco1)[C@H]1CCNC1 [6-26]
measured_value: ≧7.0
--
molecule: Fc1cc(O[C@@H](c2ccccc2)[C@H]2CCNC2)cnc1F.O=C(O)C(F)(F)F [15-21]
measured_value: ≧7.0
--
molecule: O=C(O)C(F)(F)F.c1ccc([C@H](Oc2ccccn2)[C@H]2CCNC2)cc1 [14-41]
measured_value: ≧7.0
--
molecule: Cc1cc(Cl)c(O[C@@H](c2ncco2)[C@H]2CCNC2)c(Cl)c1.O=C(O)C(F)(F)F [6-12]
measured_value: ≧5.0
--
molecule: Cc1cc(Cl)ccc1O[C@@H](c1cncnc1)[C@H]1CCNC1.O=C(O)C(F)(F)F [12-3]
measured_value: ≧7.0
--
molecule: Clc1cnc(OC(c2ccccc2)C2CCNC2)c(Cl)c1 (stereo not drawn) [14-14]
measured_value: ≧7.0
--
molecule: FC(F)(F)c1cccnc1O[C@H](c1ccccc1)[C@@H]1CCNC1.O=C(O)C(F)(F)F [14-33]
measured_value: ≧5.0
--
molecule: Fc1ccc(O[C@H](c2ccccc2)[C@@H]2CCNC2)cn1.O=C(O)C(F)(F)F [15-26]
measured_value: ≧5.0

Which NET pKi is listed for Clc1ccc(O[C@@H](c2ncco2)[C@H]2CCNC2)cc1.O=C(O)C(F)(F)F [6-47] ?
≧7.0

Which NET pKi is listed for Clc1cc(Cl)cc(O[C@H](c2nccs2)[C@H]2CCNC2)c1 [Example 5-27] ?
≧7.0

Which NET pKi is listed for Clc1ccc(O[C@H](c2ccccc2)[C@@H]2CCNC2)nc1.O=C(O)C(F)(F)F [14-27] ?
≧7.0

Which NET pKi is listed for COc1ccccc1OC(c1cncnc1)C1CCNC1 (stereo not drawn) [12-4] ?
≧7.0

Which NET pKi is listed for Fc1cnc(O[C@@H](c2ccccc2)[C@H]2CCNC2)c(F)c1C(F)(F)F.O=C(O)C(F)(F)F [14-18] ?
≧7.0

Which NET pKi is listed for CC(=O)c1cc(F)cc(F)c1O[C@@H](c1ncco1)[C@H]1CCNC1.O=C(O)C(F)(F)F [6-28] ?
≧7.0

Which NET pKi is listed for CC(C)c1ccccc1O[C@@H](c1ncco1)[C@H]1CCNC1.O=C(O)C(F)(F)F [6-32] ?
≧7.0

Which NET pKi is listed for Cc1ccccc1O[C@@H](c1nccs1)[C@H]1CCNC1 [Example 5-24] ?
≧5.0
